- Assayed system: orotate phosphoribosyltransferase (PyrE) (Escherichia coli)
- Sequence (P0A7E3 2-213): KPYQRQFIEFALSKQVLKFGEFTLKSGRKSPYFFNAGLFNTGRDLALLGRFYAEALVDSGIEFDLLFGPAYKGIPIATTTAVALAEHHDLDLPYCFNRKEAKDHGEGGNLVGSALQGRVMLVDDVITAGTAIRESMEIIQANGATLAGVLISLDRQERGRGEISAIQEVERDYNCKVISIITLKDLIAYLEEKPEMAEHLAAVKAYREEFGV
- Protocol summary: microscale thermophoresis
- Type: binding
Endpoint: pKd
API: returns pKd as number; meaning -log10 of concentration in mol/L.

Exercise: Record O=P(O)(O)OC[C@H]1O[C@H](OP(=O)(O)OP(=O)(O)O)[C@H](O)[C@@H]1O : what is its pKd with orotate phosphoribosyltransferase (PyrE) (Escherichia coli)?
Key: 5.09
